Hey, just so you know, these numbers are from PubChem BioAssay AID248.

# System: L1210 leukemia ip in BDF1 mice, survival T/C
# measurement-notes: NCI In Vivo Anticancer Drug Screen. Data for tumor model L1210 Leukemia (intraperitoneal) in B6D2F1 (BDF1) mice
# recorded-conditions: endpoint: mean survival time; dose: 100.0 mg/kg/injection; schedule: Q01DX001 (ip); vehicle: carboxymethylcellulose (CMC)
Toxic doses and inconclusive results are not listed. Rule as the data show it: active = T/C of 150% or more; inactive = T/C below 125%.
Outcome codes: true (1) = active, false (0) = inactive

1) CC1(C)Oc2c(ccc(O)c2CN2CCOCC2)C2=C1CCCC2 | false (0)
2) O=C1OCC/C1=C\c1ccccc1 | false (0)
3) CCCCCCCCCCCCCCCCCC1=Nc2cc(C)c(C)cc2NC(=O)C1 | false (0)
4) c1ccc(-c2cccc[c]2[Hg][c]2ccccc2-c2ccccc2)cc1 | false (0)
5) N=c1ccccn1CC(O)COc1ccccc1 (configuration not stated) | false (0)
6) CC(OC(=O)c1ccccc1C(=O)O)c1ccccc1 (configuration not stated) | false (0)
7) NC1=NC(c2ccccc2)C2=C(N1)C(=O)N(Cc1ccccc1)C2 (configuration not stated) | false (0)
8) OCCC1COc2ccccc2O1 (configuration not stated) | false (0)
9) COc1ccc(CN2CCCN(Cc3ccc(OC)cc3OC)C2c2ccc(OC)cc2OC)c(OC)c1 | false (0)
10) CCS(=O)(=O)C(c1ccccc1)S(=O)(=O)CC | false (0)
11) CC1C(=O)NN=C1c1ccc([N+](=O)[O-])cc1 (configuration not stated) | false (0)
12) Cc1ccccc1N=NN(C)C | false (0)
13) CCCCCCC1CC2CCCCC2CC1CCCC (configuration not stated) | false (0)
14) O=C(O)C(CO)c1ccc(F)cc1 (configuration not stated) | false (0)
15) Nc1nc(N)c2cc(CCc3ccccc3)ccc2n1 | false (0)
16) Cc1cc(N(CCCl)CCCl)ccc1C=Nc1cc(Br)c(O)c(Br)c1 | false (0)
17) O=NN(CCCl)C(=O)NC1CC2CCC1C2 (configuration not stated) | true (1)

* * *

# System: L1210 leukemia ip in BDF1 mice, survival T/C
# measurement-notes: NCI In Vivo Anticancer Drug Screen. Data for tumor model L1210 Leukemia (intraperitoneal) in B6D2F1 (BDF1) mice
# recorded-conditions: endpoint: mean survival time; dose: 100.0 mg/kg/injection; schedule: Q01DX009 (ip); vehicle: saline with Tween-80; higher = longer survival
Inconclusive results and toxic doses are left out. Peptide text beside a SMILES is read from it. * marks the point of attachment. Boc = CC(C)(C)OC(=O)*
quantity-kind: T/C

1) OCc1cc2ccccc2cc1F | 92 % of control
2) O=C(O)C1Cc2c([nH]c3ccccc23)C(c2ccccc2)N1 (centres undefined) | 96 % of control
3) N#CC(=C1C=CC(=NO)C=C1)c1ccc(Cl)cc1 | 97 % of control
4) O=C1CC2CCCCC2O1 (centres undefined) | 88 % of control
5) O=C(CC(O)(C(F)(F)Cl)C(F)(F)Cl)c1cccc([N+](=O)[O-])c1 | 98 % of control
6) Cc1nccn1C(/C(=N/O)c1ccccc1)c1ccccc1 (centres undefined) | 96 % of control
7) C=CCn1c2c(c3ccccc31)CCC2 | 93 % of control
8) CCCCCC/C(C)=N/O | 94 % of control
9) COC(=O)CNC(=O)C1CCCN1C(=O)C(Cc1c[nH]c2ccccc12)NC(=O)OC(C)(C)C (stereo not drawn) (Boc-Trp-Pro-Gly-OMe; configuration not given here) | 88 % of control
10) O=C1OC(=O)c2c(O)cccc21 | 98 % of control
11) O=C(O)c1ccccc1/C=C/c1ccccc1 | 96 % of control
12) CCOC(=O)c1csc(CNC(=O)c2ccccc2)n1 | 100 % of control
13) C/C=C/C=C(\CC)C(=O)OCC | 98 % of control
14) S=C(N/N=C/C(c1ccccc1)c1ccccc1)Nc1ccccc1 | 86 % of control
15) COc1ccc(/C=N/NC(=O)C[n+]2ccccc2)cc1 | 112 % of control
16) O=C(Nc1ccc(Cl)c(C(F)(F)F)c1)Oc1ccccn1 | 93 % of control
17) O=C(O)CCCCc1ccccc1 | 96 % of control
18) O=C(NO)C1CCC(C(=O)NO)CC1 (centres undefined) | 92 % of control
19) CC(O)CCc1ccccc1 (centres undefined) | 100 % of control
20) CCC(=O)C(CCCCCCOc1ccc(OC)cc1Cl)C(=O)CC | 92 % of control
21) CC1SC(=S)N(c2ccccc2)C1=O (centres undefined) | 92 % of control
22) CCOC(=O)c1cc(Br)cc(Br)c1N=NN(C)C | 113 % of control
23) O=C(NC(c1ccccc1)c1ccccc1)c1ccccc1 | 88 % of control
24) CN(C)CCCN1c2ccccc2C(C)(C)c2ccccc21 | 116 % of control
25) NC(=O)CCC(N)C(=O)O (centres undefined) | 97 % of control
26) COc1ccc(C(=O)Nc2cccc(C(F)(F)F)c2)cc1 | 100 % of control
27) CCCN(CCC)N=Nc1ccccc1C(N)=O | 90 % of control
28) Cn1nc2ccccc2n1 | 100 % of control
29) CCOC(=O)c1cnc(SCc2ccccc2)[nH]c1=O | 101 % of control
30) O=C(N/N=C/c1ccccc1O)c1cc2ccccc2cc1O | 91 % of control
31) O=C(O)C1=CCCc2ccc(Br)cc21 | 95 % of control
32) COc1ccc(C)cc1NC(=O)OCCOc1ccc(Br)cc1 | 97 % of control
33) O=C(O)c1ccc(NC(=S)Nc2ccc(C(=O)O)cc2)cc1 | 93 % of control
34) N=C(CCCc1ccccc1)SCc1ccccc1 | 92 % of control

* * *

# Tested on: L1210 leukemia ip in BDF1 mice, survival T/C
# measurement-notes: NCI In Vivo Anticancer Drug Screen. Data for tumor model L1210 Leukemia (intraperitoneal) in B6D2F1 (BDF1) mice
# recorded-conditions: endpoint: mean survival time; dose: 200.0 mg/kg/injection; schedule: Q01DX009 (ip); vehicle: Klucel (hydroxypropylcellulose) (HPC); higher = longer survival
Inconclusive results and toxic doses are left out.
quantity-kind: T/C

1) COC(=O)C1Oc2ccc(Cl)cc2Cc2cc(Cl)ccc2O1 | 93 % of control
2) CCOC(=O)C1C(C)NC(C)C(C(=O)OCC)C1c1ccccc1Cl (stereo unspecified) | 98 % of control
3) N=C1C(=O)C(=N)c2ccccc2-c2ccccc21 | 97 % of control
4) CC(C)(C)C(=O)CC(=O)C(C)(C)C.CC(C)(C)C(=O)CC(=O)C(C)(C)C.CC(C)(C)C(=O)CC(=O)C(C)(C)C.[Yb] | 97 % of control
5) CCCCCCCCCCCCCCCCCOC(=O)CCCCCCCCCCCCC | 96 % of control
6) COC(=O)c1ccc(C(=O)OC)c(=O)[nH]1 | 101 % of control

* * *

# System: L1210 leukemia ip in BDF1 mice, survival T/C
# measurement-notes: NCI In Vivo Anticancer Drug Screen. Data for tumor model L1210 Leukemia (intraperitoneal) in B6D2F1 (BDF1) mice
# recorded-conditions: endpoint: mean survival time; dose: 200.0 mg/kg/injection; schedule: Q04DX003 (ip); vehicle: Klucel (hydroxypropylcellulose) (HPC); higher = longer survival
Toxic doses and inconclusive results are not listed.
quantity-kind: T/C

1) CCOc1ncc([N+](=O)[O-])cn1 | 114 % of control
2) CC(C)(C)C1CN1C(=S)Nc1ccccc1 (configuration not stated) | 105 % of control
3) COc1ccc2c(c1)CCC2=O | 96 % of control
4) O=C(NC1CCCCC1)c1ccc(Cl)cc1 | 105 % of control
5) CCOC(=O)c1cnc(C)nc1Nc1ccccc1 | 103 % of control
6) CCOC(=O)Nc1cc([N+](=O)[O-])ccc1OC | 98 % of control
7) Clc1cccc(NCCc2ccccc2)c1 | 94 % of control
8) Cc1c2cnccc2c(C)c2c1c1ccccc1n2CCCC#N | 102 % of control
9) CC(C#N)CC12CCCCC1CC/C(=C\c1ccccc1)C2=O (configuration not stated) | 96 % of control
10) Cc1cnc2no[n+]([O-])c2c1 | 102 % of control
11) Cc1cc(Cl)ccc1OC(=O)Nc1c(C)cccc1C | 103 % of control
12) COC(=O)c1ccccc1NC(=S)NC(=O)/C=C/c1ccccc1 | 95 % of control
13) COC(=O)C1Oc2ccc(Cl)cc2Cc2cc(Cl)ccc2O1 | 93 % of control
14) CCC1C(=O)N(c2ccc(S(=O)(=O)O)cc2)N=C1C (configuration not stated) | 95 % of control
15) COc1ccc2c(c1)CC(OC)c1cc3c(nc1-2)-c1ccccc1CC3 (configuration not stated) | 100 % of control
16) CC(C)(CO)NCC(C)(C)[N+](=O)[O-] | 102 % of control
17) O=C(O)CCC(=O)Nc1ccc(S(=O)(=O)Nc2nccs2)cc1 | 103 % of control
18) O=C(NCCCl)C(Cl)(Cl)Cl | 97 % of control
19) Cc1ccc(C(=O)NS(=O)(=O)c2ccc(C)cc2)cc1 | 103 % of control
20) [Br][Pb]([Br])([c]1ccccc1)[c]1ccccc1 | 100 % of control
21) N#Cc1cc(C(Cl)(Cl)Cl)ccc1C(Cl)(Cl)Cl | 95 % of control
22) COc1ccc(NC(=O)Nc2ccc(Cl)cc2)cc1 | 104 % of control
